- assay: compound effects on differentiated 3T3-L1 adipocyte viability – cell-based, 3T3-L1 adipocytes, calcein-AM fluorescence, 48 h, basal, profiling panel (AID 1163); also: test concentration not given here
- test_settings: 3T3-L1 adipocytes viability, higher = more signal
property_label: z-score

Sample records with z-score:
CC(CO)N1C(=O)[C@@H]2C3C(=O)OCCC/C=C\[C@H]3OC23C=CCN(CCN2CCOCC2)C(=O)[C@@H]13 (some centres undefined) = -0.414
CC(C)[Si](C#CCCCC#N)(O[C@H](c1ccccc1)c1cn(Cc2cccc(Cl)c2)nn1)C(C)C = -0.75
CCOC(=O)C1=CCC(c2ccc(F)cc2)N(S(=O)(=O)c2ccc(C)cc2)C1 (centres undefined) = -1.12

Could you now look at the following compound, please?
Query :: Can you share its z-score? I mean this compound: COc1ccc(NC(=O)O[C@H]2[C@H](OC(=O)c3cc4ccccc4[nH]3)[C@@H](OC(=O)c3cc4ccccc4[nH]3)[C@@H](OC)O[C@@H]2CO)cc1
Result :: 0.203

---

- Test system: Human papillomavirus type 1a protein E7 (residues 44-93)
- assay: small molecules binding HPV E7 44-93 – biochemical, small-molecule microarray, residues 44-93, 635 nm fluorescence, primary screen (AID 1108);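 also: E7 fragment applied at 1 µg/mL in TBST for 1 h at 4 C; score combines spot fluorescence with its signal to noise ratio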
- test_settings: fluorescence 635 nm, higher = more signal
The threshold is inclusive: composite z-score of exactly 0.7 counts as True; values below receive False.

CC(CO)N1C(=O)[C@@H]2C3C(=O)OCCC/C=C\[C@H]3OC23C=CCN(CCN2CCOCC2)C(=O)[C@@H]13 (some centres not stated) = False
O=C1NC(=O)C2C1C=CC(C(O)c1ccc(-c3ccccc3)s1)N2Nc1ccc(Cl)cc1Cl (configuration not stated) = True
C=C(/C(=C/C[C@H](OC(=O)c1ccncc1)c1ccc(OCCO)cc1)c1cc(C(=O)OC)ccc1OC)C(C)C = True
CN1C(=O)C2C=CC(C(O)c3c(F)cccc3Cl)N(NC(=O)OC(C)(C)C)C2C1=O (configuration not stated) = True
O=C(NCCN1CCOCC1)[C@@H]1c2ccccc2C(=O)N(Cc2cc(C(F)(F)F)cc(C(F)(F)F)c2)[C@H]1c1ccc(CO)cc1 = True

Query :: Tell me whether composite z-score is at least 0.7 here: CC(c1ccccc1)C(O)C1C=CC2C(=O)N(C)C(=O)C2N1NC(=O)OC(C)(C)C (configuration not stated)
Result :: False

Query :: Another: CCOC(=O)C[C@H]1[C@H](OC(=O)c2ccc(-c3ccccc3)cc2)[C@@H](NC(=O)c2ccccc2)c2cc(OCCCO)ccc2N1C(=O)Cc1ccc(OC)cc1
Result :: False

---

- target_of_assay: NADPH oxidase 2 (Homo sapiens) (UniProt P04839)
- Sequence (P04839 whole entry, looked up): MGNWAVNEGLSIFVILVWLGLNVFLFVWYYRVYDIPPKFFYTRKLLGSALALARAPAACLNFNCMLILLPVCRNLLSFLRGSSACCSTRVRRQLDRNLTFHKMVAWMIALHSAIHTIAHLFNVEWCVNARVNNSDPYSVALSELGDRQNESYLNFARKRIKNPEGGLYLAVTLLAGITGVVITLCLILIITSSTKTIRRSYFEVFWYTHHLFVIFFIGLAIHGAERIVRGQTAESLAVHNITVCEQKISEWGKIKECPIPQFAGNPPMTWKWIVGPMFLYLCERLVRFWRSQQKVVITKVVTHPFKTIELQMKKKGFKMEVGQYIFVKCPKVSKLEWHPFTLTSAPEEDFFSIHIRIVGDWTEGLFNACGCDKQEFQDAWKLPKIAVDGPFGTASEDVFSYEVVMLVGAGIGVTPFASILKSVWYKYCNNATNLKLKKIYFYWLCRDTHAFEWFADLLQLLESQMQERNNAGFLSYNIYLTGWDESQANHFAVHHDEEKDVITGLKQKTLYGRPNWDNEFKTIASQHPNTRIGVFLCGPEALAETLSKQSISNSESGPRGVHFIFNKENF
- assay: compounds shifting NOX2 Amplex Red fluorescence – cell-based, HEK293-NOX2, PMA-stimulated, NOX inhibitor project, primary screen (AID 1159); also: test concentration not given here
- test_settings: 45 min, higher = more signal, called active from +8 up or from −8 down
The source made the active and inactive calls.
property_label: z-score

Sample records with z-score:
C=C[C@H](C)[C@@H](OC(=O)Nc1ccc(SC)cc1)c1ccc(O)c2ccccc12 = -5.52 (inactive)
COc1ccc(NC(=O)O[C@H]2[C@H](OC(=O)c3cc4ccccc4[nH]3)[C@@H](OC(=O)c3cc4ccccc4[nH]3)[C@@H](OC)O[C@@H]2CO)cc1 = -3.65 (inactive)

Could you now look at the following molecule, please?
Query :: Can you share its z-score? I mean this molecule: COc1cc(OC)c(C(O)C2C=CC3C(=O)NC(=O)C3N2Nc2ccccn2)cc1Br (stereo not drawn)
Result :: -0.0691 (inactive)

---

List of composite z-score values.
- target_of_assay: Left-right determination factor 2 (Homo sapiens) (UniProt O00292)
- Sequence (O00292 whole entry, looked up): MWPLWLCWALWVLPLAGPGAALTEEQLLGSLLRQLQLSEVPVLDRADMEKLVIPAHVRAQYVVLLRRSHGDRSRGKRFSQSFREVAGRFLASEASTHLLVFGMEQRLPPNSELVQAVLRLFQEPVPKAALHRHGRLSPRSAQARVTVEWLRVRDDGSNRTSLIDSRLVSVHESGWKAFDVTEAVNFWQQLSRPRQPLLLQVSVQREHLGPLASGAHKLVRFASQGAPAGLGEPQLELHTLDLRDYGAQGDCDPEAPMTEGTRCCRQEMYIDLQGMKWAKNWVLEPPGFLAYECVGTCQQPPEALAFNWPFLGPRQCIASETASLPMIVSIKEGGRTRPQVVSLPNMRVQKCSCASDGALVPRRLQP
- assay: small molecules binding LEFTY2 protein – biochemical, small-molecule microarray, 635 nm fluorescence scan, primary screen (AID 1110)
- test_settings: higher = more signal

COc1ccc([Si](C)(C)[C@@H]2[C@@H](CC(=O)N3CCC[C@H]3CO)O[C@]3(C(=O)N(Cc4cccc(I)c4)c4ccccc43)[C@H]2C)cc1 = 1.39
[N-]=[N+]=Nc1ccccc1C[C@]1(C(=O)NCc2ccccc2)N=C(c2ccc(OCCCO)cc2)O[C@H]1c1ccccc1N=[N+]=[N-] = -0.366
COC(=O)C(CC#Cc1ccc2c(c1)[C@]1(C(=O)N2)[C@H](c2ccccc2OCCO)N2[C@H](c3ccccc3)[C@H](c3ccccc3)OC(=O)[C@H]2[C@@H]1C(N)=O)C(=O)OC = -0.0862

Query :: Can you share its composite z-score? I mean this molecule: O=C1O[C@H](c2ccccc2)[C@H](c2ccccc2)N2[C@H]1[C@@H](C(=O)NC[C@H](O)c1ccccc1)[C@]1(C(=O)Nc3ccccc31)[C@H]2c1ccc(O)cc1
Result :: 0.733

Query :: Another: COc1ccc([Si](C)(C)[C@@H]2[C@@H](CCO)O[C@]3(C(=O)N(Cc4cccc(N5CCOC5=O)c4)c4ccccc43)[C@H]2C)cc1
Result :: 0.133

Query :: Another: C[N+](C)(C)CCCC[C@@H]1NC(=O)[C@@H]2C[C@H](C(=O)NCCCCCN)[C@H](c3ccc(O)cc3)N2C1=O
Result :: 1.24

Query :: Another: CC[C@@H]1C=C(C(=O)O)[C@H](c2cccc3ccccc23)N1S(=O)(=O)c1ccc(C)cc1
Result :: 0.132

Query :: Another: CCCCC(=C=CC[C@@H](O)c1cccc(OCCO)c1)C[C@@H](O)c1ccccn1
Result :: 0.229

Query :: Another: COCCOC(=O)N1C(=O)[C@@]2(c3cc(C#CCCO)ccc31)[C@H](c1ccc(O)cc1)N1[C@H](c3ccccc3)[C@H](c3ccccc3)OC(=O)[C@H]1[C@@H]2C(=O)N1CCN(c2ncccn2)CC1
Result :: 0.613

Query :: Another: CCCCN1CC=CC23O[C@@H]4C=CCOC(=O)[C@@H]4[C@H]2C(=O)N(CCCCCCO)[C@@H]3C1=O (some centres not stated)
Result :: -1.18

Query :: Another: CO[C@H]1O[C@H](CO)[C@@H](OC(=O)Nc2ccc(Oc3ccccc3)cc2)[C@H](OC(=O)Nc2ccc3c(c2)OCO3)[C@@H]1OC(=O)Nc1ccc2c(c1)OCO2
Result :: 0.627

Query :: Another: COc1ccccc1CN1C(=O)c2ccccc2[C@@]2(Cc3ccccc3N(CCCN(C)C)C2=O)[C@@H]1c1ccc(CO)cc1
Result :: 0.524

Query :: Another: COC(=O)c1c(CC[C@@H](CO)NC(=O)NCCc2c[nH]c3ccccc23)oc(C(=O)Cc2ccccc2)c1C(=O)OC
Result :: 0.353

---

- assay: budding yeast growth modifiers under rapamycin – strain BY4716, OD600, 96 h, primary screen (AID 1091); also: test concentration not given here
- test_settings: S. cerevisiae BY4716 + rapamycin, higher = more signal, called active from +8 up or from −8 down
property_label: z-score
Number, no unit, nothing else.

COCC(=C=CC[C@H](O)c1ccccc1OCCO)CCO = -0.127

Query :: Can you share its z-score? I mean this molecule: CC[C@@H]1C=C(C(=O)O)[C@H](c2cccc3ccccc23)N1S(=O)(=O)c1ccc(C)cc1
Result :: -0.168

Query :: Another: CCOC(=O)C[C@H]1[C@H](OC(=O)c2ccc(C(=O)c3ccccc3)cc2)[C@@H](NC(=O)Cc2ccc(OC)cc2)c2cc(OCCCO)ccc2N1C(=O)c1ccc2ccccc2n1
Result :: 0.605

---

- target_of_assay: Torsin-1A (Homo sapiens) (UniProt O14656)
- Sequence (O14656 whole entry, looked up): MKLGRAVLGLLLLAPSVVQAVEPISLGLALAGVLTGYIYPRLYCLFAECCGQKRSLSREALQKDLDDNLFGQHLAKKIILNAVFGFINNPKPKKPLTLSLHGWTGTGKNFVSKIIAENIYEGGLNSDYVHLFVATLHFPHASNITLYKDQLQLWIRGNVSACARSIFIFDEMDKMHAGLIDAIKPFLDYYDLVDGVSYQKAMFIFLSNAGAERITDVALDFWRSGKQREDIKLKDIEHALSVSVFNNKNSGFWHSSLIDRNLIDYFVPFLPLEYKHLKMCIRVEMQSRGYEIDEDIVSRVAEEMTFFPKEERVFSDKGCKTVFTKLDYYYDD
- assay: torsin A mutant lysate binding on microarrays – cell lysate, small-molecule microarray, COS7 lysate, 635/667 nm fluorescence, primary screen (AID 1150);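 also: score pools 667 nm emission and signal to noise measuring lysate protein binding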
- test_settings: COS7 hTOR1A mutant lysate, 635 nm fluorescence, higher = more signal
property_label: composite z-score
Number, no unit, nothing else.

Query :: Can you share its composite z-score? I mean this compound: O=C1C2C=CC(C(O)c3c(F)cccc3Cl)N(Nc3ccccc3F)C2C(=O)N1c1ccccc1 (stereo unspecified)
Result :: 0.301

---

List of composite z-score values.
- assay: binders of probe aHhip on microarray, primary screen, stem cell growth factor project, biochemical, small-molecule microarray, fluorescence 635/667 (AID 1087);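 also: score merges spot fluorescence at 667nm with spot signal to noise ratio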
- test_settings: higher = more signal
Number, no unit, nothing else.

Query :: Can you share its composite z-score? I mean this compound: O=C1OCCC=C[C@H]2OC34C=CCN(CCN5CCOCC5)C(=O)[C@H]3N(CCCCCO)C(=O)[C@@H]4C12 (stereo partly specified)
Result :: -0.0994

Query :: Another: COc1ccc([Si](C)(C)[C@@H]2[C@@H](CC(=O)N3Cc4ccccc4C[C@H]3CO)O[C@]3(C(=O)N(Cc4cccc(N5CCC5=O)c4)c4ccccc43)[C@H]2C)cc1
Result :: 0.35

Query :: Another: COC(=O)[C@@]1(Cc2ccc(OC)cc2)[C@H]2c3cc(C(=O)N(C)C)n(Cc4ccc(C(F)(F)F)nc4)c3C[C@H]2CN1C(=O)c1ccccc1
Result :: -0.0237

Query :: Another: CCOC(=O)C1=CC[C@H]2C(=O)N(c3ccccc3)C(=O)[C@@H]12
Result :: -0.0237

Query :: Another: CCCCN1CC=CC23O[C@@H]4C=CCCOC(=O)C4[C@H]2C(=O)N(CCCCCO)[C@@H]3C1=O (stereo partly specified)
Result :: 0.107

Query :: Another: CCOC(=O)C1=CC[C@@H](c2ccccc2)N(S(=O)(=O)c2ccc(C)cc2)[C@H]1c1ccc(CC)cc1
Result :: -0.0618
